Data provenance: patent US20200087363A1

- TARGET_SYSTEM: T1, HLA-B*44:05 (human)
- T1 construct: also called peptide-receptive MHC class I molecule
- TEST: UV peptide exchange, anti-b2m ELISA
We begin with a simple list: items and their reported peptide exchange yield.

Example entries begin here.
YEIRAEAL    20 to 50%
SEENTGKTY    50 to 75%
TETDIDREY    20 to 50%
EEGRVYVY    20 to 50%
EEIENLQAQF    20 to 50%

What does the data say about its peptide exchange yield? Entry: `LEDQLKPMLEW`
50 to 75%

Please look up its peptide exchange yield: `KESDAGRYY`
50 to 75%

# peptide exchange yield lookup, item `RRHPSFKRF`
10 to 20%

For `SEDTIHTHL` , what is its reported peptide exchange yield?
50 to 75%

# get_value(readout='peptide exchange yield', item= `EECDKAYSF` )
20 to 50%

Looking for the measured peptide exchange yield of `RENPGMFSW` , can you help?
50 to 75%
